Origin of values: patent US20230192699A1

assay protocol: Assay of intrinsic clearance in liver microsomes (human)
Format: in vitro ADME
condition info: Human liver microsomes 0.5 mg/mL, 2 μM compound, 37° C.; read-out: in vitro t1/2
measured endpoint: half-life at 2 μM (min)

> print(dat)
                        structure.as.smiles  measurement.unit  value
1  C[C@@H]1Cn2nc(-c3ccc(F)cc3)c(-c3ccncc3)c2CO1               min   23.1
2  Cn1cc(-c2ccnc3[nH]ncc23)c(-c2ccc(F)cc2)c1C#N               min    175
3   Nc1cc(-c2c(-c3ccc(F)cc3)nn3c2COCC3)ccn1               min     28
4    Nc1cc(-c2c(-c3ccc(F)cc3)nn3c2CCC3)ccn1               min   13.4
5  CN1CCn2nc(-c3ccc(F)cc3)c(-c3ccnc(N)c3)c2C1               min    143

###

assay protocol: Assay of intrinsic clearance in liver microsomes (human)
Type: in vitro ADME
condition info: Human liver microsomes 0.5 mg/mL, 2 μM compound, 37° C.; read-out: in vitro CLint (μL/min/mg protein)
Here, each record is paired with measured microsomal CLint at 2 μM data.
measured endpoint: microsomal CLint at 2 μM (µL/min/mg)

> print(dat)
                        structure.as.smiles         measured.endpoint  value
1    Nc1cc(-c2c(-c3ccc(F)cc3)nn3c2CCC3)ccn1  microsomal CLint at 2 μM    104
2  C[C@@H]1Cn2nc(-c3ccc(F)cc3)c(-c3ccncc3)c2CO1  microsomal CLint at 2 μM   60.1
3  CN1CCn2nc(-c3ccc(F)cc3)c(-c3ccnc(N)c3)c2C1  microsomal CLint at 2 μM    9.7
4  Cn1cc(-c2ccnc3[nH]ncc23)c(-c2ccc(F)cc2)c1C#N  microsomal CLint at 2 μM   7.93
5   Nc1cc(-c2c(-c3ccc(F)cc3)nn3c2COCC3)ccn1  microsomal CLint at 2 μM   49.5

###

assay protocol: Assay of intrinsic clearance in liver microsomes (mouse)
Assay type: in vitro ADME
condition info: Mouse liver microsomes 0.5 mg/mL, 2 μM compound, 37° C.; read-out: in vitro CLint (μL/min/mg protein)
// NB: equality with 100 µL/min/mg counts as criterion not met; only microsomal CLint at 2 μM strictly below is criterion met

> print(dat)
                                   compound        group.label
1  Cn1cc(-c2ccnc3[nH]ncc23)c(-c2ccc(F)cc2)c1C#N [Compound 5-2]      criterion met
2  C[C@@H]1Cn2nc(-c3ccc(F)cc3)c(-c3ccncc3)c2CO1 [Compound 1-46]      criterion met
3  Nc1cc(-c2c(-c3ccc(F)cc3)nn3c2CCC3)ccn1 [Compound 1-57]  criterion not met
4  Nc1cc(-c2c(-c3ccc(F)cc3)nn3c2COCC3)ccn1 [Compound 1-49]  criterion not met
5  CN1CCn2nc(-c3ccc(F)cc3)c(-c3ccnc(N)c3)c2C1 [Compound 1-59]      criterion met

###

Entries and their half-life at 2 μM
assay protocol: Assay of intrinsic clearance in liver microsomes (mouse)
Type: in vitro ADME
condition info: Mouse liver microsomes 0.5 mg/mL, 2 μM compound, 37° C.; read-out: in vitro t1/2
measured endpoint: half-life at 2 μM (min)

> print(dat)
                                   molecule  value
1  Cn1cc(-c2ccnc3[nH]ncc23)c(-c2ccc(F)cc2)c1C#N [Compound 5-2]     55
2  Nc1cc(-c2c(-c3ccc(F)cc3)nn3c2COCC3)ccn1 [Compound 1-49]   13.3
3  CN1CCn2nc(-c3ccc(F)cc3)c(-c3ccnc(N)c3)c2C1 [Compound 1-59]   62.3
4  Nc1cc(-c2c(-c3ccc(F)cc3)nn3c2CCC3)ccn1 [Compound 1-57]   4.86
5  C[C@@H]1Cn2nc(-c3ccc(F)cc3)c(-c3ccncc3)c2CO1 [Compound 1-46]   30.9
